Provenance of the data: ChEMBL document CHEMBL1139340

experiment: Lipophilicity, log P at pH 7.4; type: physicochemical; details: buffer
# Lookup of reported logD keyed by entry
The answer should be a number; do not append a unit.

Here's what some known entries look like.
INSERT INTO measurements (mol_smiles, readout_type, data_value) VALUES
  ('FCCc1ccccc1O[C@@H](c1ccccc1)[C@@H]1CNCCO1', 'logD', 2),
  ('Cc1ccccc1S[C@@H](c1ccccc1)[C@@H]1CNCCO1', 'logD', 2.47),
  ('FCCCc1ccccc1O[C@@H](c1ccccc1)[C@@H]1CNCCO1', 'logD', 2.29);

Ask: Which logD value belongs to Cc1ccccc1O[C@@H](c1ccccc1)[C@@H]1CNCCO1 ?
Result: 2.04
